Where these numbers come from: PubChem BioAssay (Tox21)

Assay: Nuclear factor erythroid 2-related factor 2/antioxidant responsive element (Nrf2/ARE) small molecule agonists: luciferase reporter gene qHTS assay in human keratinocytes (AID 1919969); also: nearly all actives have a fitted effect of over 35% in size
Settings: KeratinoSens HaCaT ARE-luciferase, luminescence, 24 h; series mostly up to 92.4 µM
Source text: National Center for Advancing Translational Sciences [NCATS] Division of Preclinical Innovation [DPI] U.S. Environmental Protection Agency [EPA] National Institutes of Environmental Health Sciences [NIEHS] National Toxicology Program [NTP] […] Oxidative stress has been implicated in the pathogenesis of a variety of diseases ranging from cancer to neurodegeneration. […] The activation of the report gene under culture conditions can be detected by ONE-Glo Luciferase Assay System (Promega, Madison, WI). […]
Results filed as inconclusive are left out. Activity calls are given as the source filed them. Calls follow the shape of the full dose curve.
Please state which outcome applies, choosing from 1 (yes) (active), 0 (no) (inactive)

O=C(O)c1nc(Cl)c(Cl)c(Cl)c1Cl	1 (yes)
CC(C)(C)c1cc(/C=C2\SC(=N)NC2=O)cc(C(C)(C)C)c1O	0 (no)
Cc1ccc2nc(-c3ccc(N)cc3)sc2c1S(=O)(=O)O	1 (yes)
CC(=O)Oc1ccc2c(c1)CC[C@@H]1[C@@H]2CC[C@]2(C)[C@@H](O)CC[C@@H]12	0 (no)
CC1(C)SC(C)(C)SC(C)(C)S1	0 (no)

Outcome logged for CCOC(=O)NCCOc1ccc(Oc2ccccc2)cc1 in this assay: 0 (no)

###

biological target: 5-hydroxytryptamine receptor 2A (Homo sapiens); assay: 5-hydroxytryptamine receptor 2A (HTR2A) small molecule agonists, cell-based qHTS assay (AID 1963587); conditions: HTR2A-CHO cells, calcium flux fluorescence, agonist mode; series mostly up to 76.8 µM; also: nearly all actives have a fitted effect of over 30% in size
Records with an inconclusive call do not appear. Active and inactive are the calls of the source. Calls follow the shape of the full dose curve.
experimental readout: outcome

Consider the following illustrative entries.
O=C1N=C(O)CN1/N=C/c1ccc(-c2ccc([N+](=O)[O-])cc2)o1	inactive
Nc1c(I)cc(I)c(C(=O)N(CCC(=O)O)c2ccccc2)c1I	inactive
CCOC(=O)C(F)(F)F	inactive
COc1ccccc1N1CCN(CC(O)COc2cccc3ccccc23)CC1 (stereo unspecified)	inactive
O=[N+]([O-])c1ccc(Nc2ccc(Nc3ccccc3)c(S(=O)(=O)O)c2)c([N+](=O)[O-])c1	inactive

# lookup: outcome of O=C(NOCC1CC1)c1ccc(F)c(F)c1Nc1ccc(I)cc1Cl inactive

###

test: Nuclear factor erythroid 2-related factor 2/antioxidant responsive element (Nrf2/ARE) small molecule agonists: qHTS cell viability counter screen in human keratinocytes (AID 1919968); conditions: KeratinoSens HaCaT ARE cells viability, CellTiter-Fluor, 24 h; series mostly up to 92.4 µM; also: nearly all actives have a fitted effect of over 55% in size
Results filed as inconclusive are left out. Activity calls are given as the source filed them. Calls follow the shape of the dose curve; as a rule, active = well fitted cell-killing curve with a large enough effect in the repeat runs; inconclusive = weak or mixed curves, or effect the other way; inactive = flat fitted curve, though single readings scatter.
Thanks in advance; please answer with one of these: active, inactive

These recorded examples may help you get a feel for the data.
CC(=O)Nc1ccc(/C=N/NC(N)=S)cc1	inactive
CCCCCCCCCC[N+](C)(CCCCCCCCCC)CCC[Si](OC)(OC)OC	active
CCCCCCCC/C=C\CCCCCCCC(=O)OCCOC(=O)CCCCCCC/C=C\CCCCCCCC	inactive

So what was the verdict on CC/C=C1/OC(=O)c2ccccc21 in this test? inactive

Hey, what did the test say about CC(=O)c1c(C)c([N+](=O)[O-])c(C(C)(C)C)c([N+](=O)[O-])c1C ? inactive

###

target: 5-hydroxytryptamine receptor 2A (Homo sapiens) (UniProt P28223); assay: 5-hydroxytryptamine receptor 2A (HTR2A) small molecule agonists, cell-based qHTS assay (AID 1963587); conditions: HTR2A-CHO cells, calcium flux fluorescence, agonist mode; series mostly up to 76.8 µM; also: nearly all actives have a fitted effect of over 30% in size
Sequence (P28223 whole entry, looked up): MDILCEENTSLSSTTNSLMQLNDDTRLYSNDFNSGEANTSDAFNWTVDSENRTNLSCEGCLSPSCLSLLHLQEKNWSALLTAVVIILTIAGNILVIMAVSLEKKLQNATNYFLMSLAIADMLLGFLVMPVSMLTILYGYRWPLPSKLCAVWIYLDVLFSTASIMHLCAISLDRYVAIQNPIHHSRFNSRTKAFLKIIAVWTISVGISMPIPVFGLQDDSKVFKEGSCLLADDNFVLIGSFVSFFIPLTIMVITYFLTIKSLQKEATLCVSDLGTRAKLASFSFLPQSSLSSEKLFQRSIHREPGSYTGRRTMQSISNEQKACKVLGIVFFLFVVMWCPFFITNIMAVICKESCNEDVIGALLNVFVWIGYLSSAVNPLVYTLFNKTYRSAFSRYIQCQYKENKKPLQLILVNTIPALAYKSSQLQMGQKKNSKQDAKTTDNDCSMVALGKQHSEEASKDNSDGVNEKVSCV
Records with an inconclusive call do not appear. Calls of active or inactive are those of the source. The call rests on the fitted dose curve.
experimental readout: Potency

O=C(O)CCSSCCC(=O)O	inactive
Nc1c[n+](N2CCOCC2)no1	inactive
CC(C)C1=CC2=CC[C@@H]3[C@](C)(CCC[C@@]3(C)C(=O)O)[C@H]2CC1	inactive
CCO[Si](CCC1CCC2OC2C1)(OCC)OCC (centres undefined)	inactive

I would be grateful if you could share the reported Potency for CNC1CCCN(c2c(F)cc3c(=O)c(C(=O)O)cn(C4CC4)c3c2OC)C1 (centres undefined) . inactive

Quick one: Potency for c1ccc(-c2ccc(C(c3ccccc3)n3ccnc3)cc2)cc1 (centres undefined) ? inactive

Would you kindly share the measured Potency for CC(N)=O ? inactive

Record request: Potency value, item O=C1CCC(=O)N1Cl inactive

What Potency value was documented for this molecule, Cc1ccc(OC(=O)CC(C)C)cc1 ? inactive

What does the record list as Potency for CCCC/C=C/CCCCO ? inactive

###

assay: p53 small molecule agonists, cell-based qHTS assay with human liver microsomes: qHTS cell viability counter screen (AID 1963579); details: p53RE-bla HCT-116 viability, ATP luminescence, 16 h, HLM; series mostly up to 66 µM; also: nearly all actives have a fitted effect of over 45% in size
Inconclusive results are not listed. Active and inactive are the calls of the source. Calls follow the shape of the full dose curve.
The categories you may choose from are YES (active), NO (inactive)

O=C(O)CCSSCCC(=O)O	NO
C[C@@H](O)C(=O)O	NO
O=C1OC2(c3ccc(O)cc3Oc3cc(O)ccc32)c2ccc(N=C=S)cc21	NO

// switching to the query compound
GET /call?item= CCCCOCCOC(=O)COc1nc(Cl)c(Cl)cc1Cl returns the recorded outcome of this test. NO

###

test: Nuclear factor erythroid 2-related factor 2/antioxidant responsive element (Nrf2/ARE) small molecule agonists: qHTS cell viability counter screen in human keratinocytes (AID 1919968); settings: KeratinoSens HaCaT ARE cells viability, CellTiter-Fluor, 24 h; series mostly up to 92.4 µM; also: nearly all actives have a fitted effect of over 55% in size
Records with an inconclusive call do not appear. Active and inactive are the calls of the source. Calls come from the whole dose curve; as a rule, active = well fitted cell-killing curve with a large enough effect in the repeat runs; inconclusive = weak or mixed curves, or effect the other way; inactive = flat fitted curve, though single readings scatter.
Bench note: report the call from Yes for active, No for inactive

Dear all, I need the recorded test outcome for CCCCN1C[C@H](O)[C@@H](O)[C@H](O)[C@H]1CO , thank you. No

Test call for this compound, please: Nc1ncn([C@H]2C[C@H](O)[C@@H](CO)O2)c(=O)n1 No

Outcome logged for CC(C)COC(=O)c1ccc(O)cc1 in this assay: No

Query: recorded result category for CCO[Si](CC(C)C)(OCC)OCC in this test No

What is the recorded call for this compound in the test? Cc1ccc(O)c(C(=O)c2ccccc2)c1 No

# lookup: test call for Cc1ccc(OC(=O)CC(C)C)cc1 No

Which result was noted for this compound in the test: CC(CN)CCCN (configuration not stated) No

What did this assay record as the result for C=C[Si](OC)(OC)OC ? No

Answer briefly: the call reported for CN1CCC(=C2c3ccccc3Sc3ccccc32)CC1 in this assay. No

# fetch the recorded call for C/C=C1\C(=O)C[C@H]2[C@@H]3CCC4=CC(=O)CC[C@]4(C)[C@H]3CC[C@]12C here No

For this compound, state the assay outcome: CC(C)(C)C1=CC(=O)C=C(C(C)(C)C)C1=O No

Per the assay record, what outcome was assigned to CC(C)(C)C(=O)c1ccccc1 ? No

// outcome(item) with item = O=C1OC(=O)c2c(Br)c(Br)c(Br)c(Br)c21 No

Record request — test call for CCCCN(CCC(=O)OCC)C(C)=O No

Entry CC(C)=CC=O : call = ? No

Could you please tell me the result logged for CN[C@H]1CC[C@@H](c2ccc(Cl)c(Cl)c2)c2ccc(S(N)(=O)=O)cc21 in this assay? Yes

Name the outcome recorded for COC(=O)CC(C)=O in the assay. No

Outcome? CCN(Cc1ccncc1)C(=O)C(CO)c1ccccc1 (configuration not stated) No

Dear all, I need the recorded test outcome for CCO[Si](CCCS)(OCC)OCC , thank you. No

###

assay: Nuclear factor erythroid 2-related factor 2/antioxidant responsive element (Nrf2/ARE) small molecule agonists: qHTS cell viability counter screen in human keratinocytes (AID 1919968); details: KeratinoSens HaCaT ARE cells viability, CellTiter-Fluor, 24 h; series mostly up to 92.4 µM; also: nearly all actives have a fitted effect of over 55% in size
Records with an inconclusive call do not appear. The source made the active and inactive calls. The call rests on the fitted dose curve; in most records, active means well fitted cell-killing curve with a large enough effect in the repeat runs; inconclusive means weak or mixed curves, or effect the other way; inactive means flat fitted curve, though single readings scatter.
Please answer using one outcome listed in active, inactive

Below, 2 molecules whose answers are already recorded.
c1ccc2c(c1)CCCC2C1=NCCN1 (stereo not given)	inactive
Cn1c(=O)c2c(ncn2CCO)n(C)c1=O	inactive

Identify the outcome logged in this assay for the molecule shown: Cc1cccc(Nc2ccccc2)c1 inactive

In this assay, the call recorded for CCCCC(=O)O[C@]1(C(=O)CO)[C@@H](C)C[C@H]2[C@@H]3CCC4=CC(=O)C=C[C@]4(C)[C@@]3(F)[C@@H](O)C[C@@]21C was what? inactive

Please state the recorded outcome for this molecule: CCCCCCOc1ccccc1C(N)=O inactive

Tell me the recorded outcome of this test for O=C(/C=C/c1ccc(O)c(O)c1)O[C@@H]1C[C@@](OC(=O)/C=C/c2ccc(O)c(O)c2)(C(=O)O)C[C@@H](O)[C@@H]1O . inactive

Per the assay record, what outcome was assigned to COc1cc(/C=C/C(=O)CC(=O)/C=C/c2ccc(O)c(OC)c2)ccc1O ? active

# fetch the recorded call for CN1CCC[C@@H]1c1cccnc1 here inactive

Answer briefly: the call reported for CNC(=O)C(c1ccccc1)c1ccccc1 in this assay. inactive

Query: recorded result category for CC(COc1ccccc1)NN (stereo not given) in this test inactive

How did this test come out for CCC(C)(CN(C)C)OC(=O)c1ccccc1 (stereo not given) ? inactive

Kindly provide the recorded test outcome for the following molecule: Cc1c(Cl)cccc1Cl inactive

Hey, what did the test say about Nc1cccc(O)c1 ? inactive

Identify the outcome logged in this assay for the molecule shown: CCCCCCCCCCC[C@@H](C[C@@H]1OC(=O)[C@H]1CCCCCC)OC(=O)[C@H](CC(C)C)NC=O inactive

Which outcome was entered for the molecule CC(=O)Nc1ccc(S(=O)(=O)Cl)cc1 in this test? inactive

Tell me the assay call for CC(C)CCCCCCOC(=O)C1CCCCC1C(=O)OCCCCCCC(C)C (stereo not given) please. inactive

Look up the recorded call for CC[C@H]1O[C@]2(CC[C@@H]1C)C[C@@H]1C[C@@H](C/C=C(\C)C[C@@H](C)/C=C/C=C3\CO[C@@H]4[C@H](O)C(C)=C[C@@H](C(=O)O1)[C@]34O)O2 in this test. active

What is the recorded call for this molecule in the test? Fc1ccccc1 inactive
